# Test system: 873145-292-R-J1-PDC complex spheroid viability;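 note: luminescence signal used as surrogate for viable cell content; spheroids exposed to compounds for 7 days before viability readout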
# assay.overview: Anticancer human tumor 873145-292-R-J1-PDC patient-derived renal clear cell carcinoma cell line growth inhibition [POLQ]; active = viability on the fitted dose curve at most 10% of control; inactive = the rest
# condition.details: second compound 10 µM; first compound 3.16 µM
# Protocol: Multicellular complex tumor spheroid response to Polymerase (POL) inhibitors (novobiocin, ART-558, RP6685) in combination with a variety of drugs and investigational agents in selected tumor cell lines The POL inhibitors (novobiocin, ART-558, and RP6685) were evaluated both individually and in combination with standard of care and investigational anticancer small molecules within a complex spheroid model of solid tumors. . […]
Possible outcomes: active, inactive

molecule | test.system | class.name
C=CC(=O)N1CCN(c2nc(=O)n(-c3c(C)ccnc3C(C)C)c3nc(-c4c(O)cccc4F)c(F)cc23)C(C)C1 (stereo not given) + COC1C(OC(N)=O)C(O)C(Oc2ccc3c(O)c(NC(=O)c4ccc(O)c(CC=C(C)C)c4)c(=O)oc3c2C)OC1(C)C | 873145-292-R-J1-PDC complex spheroid viability | inactive
COc1cccc2c1C(=O)c1c(O)c3c(c(O)c1C2=O)CC(O)(C(=O)CO)CC3OC1CC(N)C(O)C(C)O1 (stereo not given) + COC1C(OC(N)=O)C(O)C(Oc2ccc3c(O)c(NC(=O)c4ccc(O)c(CC=C(C)C)c4)c(=O)oc3c2C)OC1(C)C | 873145-292-R-J1-PDC complex spheroid viability | active
CC1COCCN1c1cc(C2(S(C)(=N)=O)CC2)nc(-c2ccnc3[nH]ccc23)n1 (stereo not given) + Cc1cccc(N(C)C(=O)C2C(O)CCN2c2nc(C)cc(C(F)(F)F)c2C#N)c1 | 873145-292-R-J1-PDC complex spheroid viability | inactive
COc1cccc2c1C(=O)c1c(O)c3c(c(O)c1C2=O)CC(O)(C(=O)CO)CC3OC1CC(N)C(O)C(C)O1 (stereo not given) + Nc1ccc(C#CCN(C(=O)Cc2ncc(C(F)(F)F)cc2C(F)(F)F)c2ccc(F)cc2)nn1 | 873145-292-R-J1-PDC complex spheroid viability | active
CCc1cc2c(N3CCc4c(cc(Cn5ccnc5)cc4-c4cn(C)nc4C(F)(F)F)C3=O)cc(C)nc2c(OC)n1 + Nc1ccc(C#CCN(C(=O)Cc2ncc(C(F)(F)F)cc2C(F)(F)F)c2ccc(F)cc2)nn1 | 873145-292-R-J1-PDC complex spheroid viability | inactive
